Answer each item with its documented pKd.
assayed-target: LNX1_1, Q8TBB1
Sequence (Q8TBB1 261-371): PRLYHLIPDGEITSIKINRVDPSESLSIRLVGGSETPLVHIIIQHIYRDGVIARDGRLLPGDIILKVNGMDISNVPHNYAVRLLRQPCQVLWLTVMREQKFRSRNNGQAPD
assay-method-text: holdup assay
Design: key: below the threshold = too weak to quantify, mostly under pKd 3.1 to 4
test-parameters: plain residues with an end cap or a label only (N-terminal biotin on a linker: ado-ado)
Numbers only.

Some binders with recorded pKd:
# binder, pKd
data = [
    ("ARESQKVSHV [FAM110B, Q8TC76]", 3.97),
    ("DRIQSCLSDA [SBF1, O95248]", 3.62),
]

# evaluate next
QUERY: Bench note: what pKd did DTKNYKQTSV [CRIPT, Q9P021] show?
RESULT: 3.78
